Experimental system: GSK-3β (AA 1-420) (Homo sapiens, UniProt P49841)
Sequence (P49841 whole entry, the tested form may be a part): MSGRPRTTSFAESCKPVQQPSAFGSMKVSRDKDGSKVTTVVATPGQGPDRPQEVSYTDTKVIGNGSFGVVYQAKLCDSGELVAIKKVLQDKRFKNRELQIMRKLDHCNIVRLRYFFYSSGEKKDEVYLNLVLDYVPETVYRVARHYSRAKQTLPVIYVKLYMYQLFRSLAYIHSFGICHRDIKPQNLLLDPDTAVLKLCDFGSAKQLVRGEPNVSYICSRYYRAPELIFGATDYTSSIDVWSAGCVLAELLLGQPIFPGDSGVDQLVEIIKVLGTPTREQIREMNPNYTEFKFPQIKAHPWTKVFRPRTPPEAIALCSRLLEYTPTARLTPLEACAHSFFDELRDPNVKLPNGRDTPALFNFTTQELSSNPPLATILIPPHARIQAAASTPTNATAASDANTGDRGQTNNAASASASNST
Measure name: Ki

Cc1cc(Nc2nc(Nc3ccc4c(c3)OCCO4)nc3ccccc23)n[nH]1 :: 100 to 1000 nM
CC(=O)Nc1ccc(Sc2nc(Nc3cc(C)[nH]n3)c3ccccc3n2)cc1 :: 100 to 1000 nM
Cc1cc(Nc2cc(-c3ccco3)[nH]n2)nc(Nc2nc3ccccc3[nH]2)n1 :: 1000 to 7000 nM
c1ccc2[nH]c(Sc3nc(Nc4cc(C5CC5)[nH]n4)c4ccccc4n3)nc2c1 :: 100 to 1000 nM
c1ccc2c(Nc3cc(C4CC4)[nH]n3)nc(Nc3ccc4ncsc4c3)nc2c1 :: < 100 nM

`Cc1cccc(Nc2nc(Nc3cc(C)[nH]n3)c3ccccc3n2)c1` tested on GSK-3β (AA 1-420) (Homo sapiens, UniProt P49841) gave Ki: 100 to 1000 nM

`CCS(=O)(=O)Nc1ccc(Sc2nc(Nc3cc(C)[nH]n3)c3ccccc3n2)cc1` tested on GSK-3β (AA 1-420) (Homo sapiens, UniProt P49841) gave Ki: 100 to 1000 nM

`Cc1cc(Nc2nc(Sc3ccc(C(=O)O)cc3)nc3ccccc23)[nH]n1` tested on GSK-3β (AA 1-420) (Homo sapiens, UniProt P49841) gave Ki: < 100 nM

`CCc1ccccc1Sc1nc(Nc2cc(C)[nH]n2)c2ccccc2n1` tested on GSK-3β (AA 1-420) (Homo sapiens, UniProt P49841) gave Ki: 100 to 1000 nM
